For each of the binders below, state its PDL1 (FoB).
- Target of assay: T1, full-length untagged human GPNMB expressed on cells (human, UniProt Q14956 23-572)
- T1 sequence: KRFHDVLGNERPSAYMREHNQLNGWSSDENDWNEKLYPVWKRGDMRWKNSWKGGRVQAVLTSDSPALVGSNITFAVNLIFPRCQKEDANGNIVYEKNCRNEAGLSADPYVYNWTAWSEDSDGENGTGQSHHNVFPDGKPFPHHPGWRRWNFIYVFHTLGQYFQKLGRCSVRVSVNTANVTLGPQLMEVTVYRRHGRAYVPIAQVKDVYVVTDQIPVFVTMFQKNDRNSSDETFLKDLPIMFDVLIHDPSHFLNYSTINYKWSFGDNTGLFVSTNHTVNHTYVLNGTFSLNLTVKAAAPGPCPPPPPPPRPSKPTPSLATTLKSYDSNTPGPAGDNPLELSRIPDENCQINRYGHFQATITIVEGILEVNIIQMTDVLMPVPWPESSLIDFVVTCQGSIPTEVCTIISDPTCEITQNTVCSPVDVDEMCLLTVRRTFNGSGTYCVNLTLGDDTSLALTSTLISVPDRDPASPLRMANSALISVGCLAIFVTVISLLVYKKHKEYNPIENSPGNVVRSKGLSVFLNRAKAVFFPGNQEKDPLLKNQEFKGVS
- Protocol summary: cell-based or functional assay
Answer in FoB, number only, no unit symbol.

Item anti-GPNMB antibody GPN-03 (antibody, human IgG1, V domains shown, chimeric) VH: QVQLQQSGPELVKPGASVKLSCKASGYTFTNYYMYWVKQRPGQGLEWIGEINPRNGGTNFNEKFKSKATLTVDKSSSTAYMQLSSLTFEDSAVYYCTTGLAYWGQGTLVTVSA VL: DVVMTQTPLSLPVSLGDQASISCRSSQSLVHSDGNTYLHWYLQKPGQSPKLLIYKVSTRFSGVPDRFSGSGSGTDFTLKISRVEAEDLGVYFCSQSTHVPWTFGGGTKLEIK : provide PDL1 (FoB)
1.32

Identify measured PDL1 (FoB) corresponding to anti-GPNMB antibody GPN-07 (antibody, human IgG1, V domains shown, chimeric) VH: QVQLQQSGAEQVKPGASVKLSCKASGYTFTSYYMYWVKQRPGQGLEWIGEINPSNGGTYFNEKFKSKATLTVDKSSSTAYMHLSSLTSEDSAVYYCTRGGTYYAYWGQGTLVTVSA VL: DIQMTQSPSSLSASLGERVSLTCRASQEMSGHLSWLQQKPDGTIKRLIYAASTLDSGVPKRFSGSRSGSDYSLTISSLESEDFADYYCLQYASYPYTFGGGTKLEIK
1.67
